Quick note: these are pIC50 numbers for system: ROCK2 (human) (UniProt O75116)
Sequence (O75116 whole entry, looked up): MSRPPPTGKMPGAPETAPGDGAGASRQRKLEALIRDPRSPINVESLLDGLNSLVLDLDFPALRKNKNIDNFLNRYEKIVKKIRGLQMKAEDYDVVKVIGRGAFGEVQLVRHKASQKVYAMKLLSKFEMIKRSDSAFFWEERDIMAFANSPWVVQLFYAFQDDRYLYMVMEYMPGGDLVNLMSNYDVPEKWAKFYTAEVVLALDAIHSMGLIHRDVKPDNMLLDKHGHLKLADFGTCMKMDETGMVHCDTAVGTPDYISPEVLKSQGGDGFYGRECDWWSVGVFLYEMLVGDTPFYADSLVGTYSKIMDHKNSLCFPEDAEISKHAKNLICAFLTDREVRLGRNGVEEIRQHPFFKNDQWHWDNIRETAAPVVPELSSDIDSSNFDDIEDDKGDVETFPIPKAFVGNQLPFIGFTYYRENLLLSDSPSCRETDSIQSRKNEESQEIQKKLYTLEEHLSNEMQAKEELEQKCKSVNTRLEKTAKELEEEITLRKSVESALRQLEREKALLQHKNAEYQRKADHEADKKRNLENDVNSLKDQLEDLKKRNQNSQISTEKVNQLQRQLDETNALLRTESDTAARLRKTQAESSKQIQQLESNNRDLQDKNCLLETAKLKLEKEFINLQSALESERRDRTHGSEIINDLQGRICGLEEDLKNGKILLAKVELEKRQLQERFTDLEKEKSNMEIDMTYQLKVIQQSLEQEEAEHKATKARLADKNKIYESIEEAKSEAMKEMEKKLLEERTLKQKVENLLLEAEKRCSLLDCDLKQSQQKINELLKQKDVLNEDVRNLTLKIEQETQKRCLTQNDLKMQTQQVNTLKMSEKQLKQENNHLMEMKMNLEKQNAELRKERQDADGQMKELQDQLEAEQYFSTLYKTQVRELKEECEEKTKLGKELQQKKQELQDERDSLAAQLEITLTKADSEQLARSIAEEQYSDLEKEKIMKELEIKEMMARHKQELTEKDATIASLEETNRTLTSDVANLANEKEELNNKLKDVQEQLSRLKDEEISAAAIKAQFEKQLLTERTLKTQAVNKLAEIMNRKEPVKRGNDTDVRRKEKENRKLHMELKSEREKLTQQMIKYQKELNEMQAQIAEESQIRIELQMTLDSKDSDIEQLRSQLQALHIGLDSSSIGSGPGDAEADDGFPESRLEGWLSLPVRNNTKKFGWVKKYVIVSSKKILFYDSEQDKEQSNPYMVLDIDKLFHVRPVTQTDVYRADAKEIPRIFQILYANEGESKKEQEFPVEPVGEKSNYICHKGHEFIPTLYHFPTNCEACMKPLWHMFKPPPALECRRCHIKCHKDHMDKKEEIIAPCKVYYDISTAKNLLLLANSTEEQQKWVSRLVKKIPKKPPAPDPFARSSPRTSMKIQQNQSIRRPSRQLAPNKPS
pIC50: −log10 of the molar value.
recordedEndpoint: pIC50

COc1cccc(CNC(=O)c2c3ccc(-c4ccnc(N)n4)cc3nn2CC2CC2)c1 | 6.00 to 7.00
COc1ccc(CNC(=O)c2c[nH]c3cc(-c4cn[nH]c4)ccc23)cc1 | 6.00 to 7.00
COc1cccc(CN(CCN2CCCC2)C(=O)c2cc3ccc(-c4cn[nH]c4)nc3[nH]2)c1 | > 7.00
COc1cccc(CNC(=O)c2cc3ccc(-c4cn[nH]c4)cc3n2CCCO)c1 | > 7.00
COc1cccc(CN(C)C(=O)c2n[nH]c3cc(-c4cn[nH]c4)ccc23)c1 | > 7.00
COc1cccc(CNC(=O)c2nn(CC3CC3)c3cc(-c4ccnc(N)n4)ccc23)c1 | > 7.00
COc1cccc(CNC(=O)c2cc3ccc(-c4cn[nH]c4)nc3n2CCCO)c1 | > 7.00
CCCn1nc(C(=O)NCc2cccc(OC)c2)c2ccc(-c3cn[nH]c3)cc21 | > 7.00
COc1ccccc1CNC(=O)c1cn(CCCO)c2cc(-c3cn[nH]c3)ccc12 | > 7.00
O=C(NCCc1cccnc1)c1c[nH]c2cc(-c3cn[nH]c3)ccc12 | 6.00 to 7.00

----------
Quick note: these are IC50 numbers for system: ROCK2 (human) (UniProt O75116)
recordedEndpoint: IC50

COc1cccc(CNC(=O)c2nn(C)c3cc(-c4cn[nH]c4)ccc23)c1 | < 0.1 µM
COc1cccc(CNC(=O)c2cc3ccc(-c4cn[nH]c4)nc3[nH]2)c1 | < 0.1 µM
COc1cccc(CNC(=O)c2cn(CCN3CCCC3)c3cc(-c4cn[nH]c4)ccc23)c1 | < 0.1 µM
COc1cccc(CNC(=O)c2c[nH]c3cc(-c4cn[nH]c4)ccc23)c1 | < 0.1 µM
COc1cccc(CNC(=O)c2[nH]c3cc(-c4cn[nH]c4)ccc3c2CN(C)Cc2ccccc2)c1 | 0.1 to 1 µM

Data credit: the Kinase Knowledgebase extract (Sharma et al. 2016)
